Below is a list of entries, each paired with its recorded Selectivity index value.
- protocolNotes: Selectivity index (W138/EV71) of the compound
- Format: functional
Provide a numeric answer; units are not to be included.

# count of solved cases: 2
structureString | numericReadout
O=C1N(CCCCCOc2ccc(Br)cc2)CCN1c1ccncc1 | 130
O=C1N(CCCCCCOc2ccc(Br)cc2)CCN1c1ccncc1 | 161

Ask | Entry `O=C1N(CCCCCCOc2ccc(C(F)(F)F)cc2)CCN1c1ccncc1` : reported Selectivity index = ?
Reply | 71

---

- Tested on: Enterovirus
- protocolNotes: Inhibition concentration against EV-71 (BrCR) genotype A
- Type: functional, organism-based
measuredProperty: IC50 (nM)
Reply numerically in nM, unit not repeated.

structureString | experimentalSystem | numericReadout
O=C1N(CCCCCCOc2ccc(C(F)(F)F)cc2)CCN1c1ccncc1 | Enterovirus | 1370

Ask | Write down the reported IC50 of `O=C1N(CCCCCCOc2ccc(Br)cc2)CCN1c1ccncc1` , test system: Enterovirus.
Reply | 1260
